System Tested: T1, Biotinylated human BSSL (human, UniProt P19835 21-753, Biotinylated on glycosacarides, 30-40 biotin/BSSL)
T1 construct: hBSSL biotinylated in house; also called b-hBSSL; human BSSL-biotin
T1 sequence: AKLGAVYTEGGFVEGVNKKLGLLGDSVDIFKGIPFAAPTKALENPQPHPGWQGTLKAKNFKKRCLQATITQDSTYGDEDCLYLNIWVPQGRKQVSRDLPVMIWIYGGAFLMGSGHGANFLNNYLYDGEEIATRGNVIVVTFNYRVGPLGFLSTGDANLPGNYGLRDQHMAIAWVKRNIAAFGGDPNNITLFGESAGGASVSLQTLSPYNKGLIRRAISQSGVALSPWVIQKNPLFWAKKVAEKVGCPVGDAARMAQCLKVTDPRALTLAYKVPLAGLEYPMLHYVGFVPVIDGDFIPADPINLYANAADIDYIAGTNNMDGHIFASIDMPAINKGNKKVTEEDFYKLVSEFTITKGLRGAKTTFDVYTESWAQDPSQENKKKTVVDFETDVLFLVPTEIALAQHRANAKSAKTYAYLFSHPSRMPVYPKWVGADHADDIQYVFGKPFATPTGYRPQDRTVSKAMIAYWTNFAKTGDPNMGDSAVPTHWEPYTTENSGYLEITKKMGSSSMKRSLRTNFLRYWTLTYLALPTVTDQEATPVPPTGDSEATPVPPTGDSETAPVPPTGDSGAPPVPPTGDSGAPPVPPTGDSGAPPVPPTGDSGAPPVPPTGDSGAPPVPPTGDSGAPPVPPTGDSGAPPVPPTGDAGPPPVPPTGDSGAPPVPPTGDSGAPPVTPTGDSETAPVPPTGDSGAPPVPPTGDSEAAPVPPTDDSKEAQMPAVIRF
Assay Name: flow cytometry displacement assay; 1.5 ug antibody, 1 ug b-hBSSL
Measure: percentage reduction of b-hBSSL binding to CD14+ monocytes (%)
Only the number, expressed in %, is required.

Examples with their reported percentage reduction of b-hBSSL binding to CD14+ monocytes follow.
{"Binder": "S-SL048-65 hIgG4 S228P (antibody, V domains shown, Tested as human IgG4 S228P) VH: QVQLVQSGAEVKKPGASVKVSCKASGYTFTSYNMHWVRQAPGQGLEWIGVINPGDGATSYAQKFKGRVTMTRDTSTSTVYMELSSLRSEDTAVYYCARDYYGSSPLGYWGQGTLVTVSS VL: DIQMTQSPSSLSASVGDRVTITCSASQSISYLNWYQQKPGKAPKLLIYDASSLPSGVPSRFSGSGSGTDFTLTISSLQPEDFATYYCHQRSSSPTFGQGTKLEIK", "Meas Value": 21}
{"Binder": "AS20 mouse IgG1 (antibody, V domains shown, also called AS20 mlgG1; AS20 mIgG1) VH: QVQLQQPGAELVKPGASVKMSCKASGYTFTSYNMHWVKQTPGQGLEWIGVIYPGNGDTSYNQKFKGKATLTADKSSSTAYMQLSSLTSEDSAVYYCARDYYGSSPLGYWGQGTTLTVSS VL: QIVLTQSPAVMSASPGEKVTMTCSASSSISYMHWYQQKPGTSPKRWIYDTSKLASGVPARFSGSGSGTSYSLTISSMEAEDAATYYCHQRSSYPTFGGGTKLEIK", "Meas Value": 72}
{"Binder": "S-SL048-48 hIgG4 S228P (antibody, V domains shown, Tested as human IgG4 S228P) VH: QVQLVQSGAEVKKPGASVKVSCKASGYTFTSYNMHWVRQAPGQGLEWIGVINPGDGATSYAQKFQGRVTMTRDTSTSTVYMELSSLRSEDTAVYYCARDYYGSSPLGYWGQGTLVTVSS VL: DIQMTQSPSSLSASVGDRVTITCRASPSISYMNWYQQKPGKAPKLLIYATSRLQSGVPSRFSGSGSGTDFTLTISSLQPEDFATYYCHQRSSSPTFGQGTKLEIK", "Meas Value": 50}

Name the reported percentage reduction of b-hBSSL binding to CD14+ monocytes value associated with the binder S-SL048-14 hIgG4 S228P (antibody, V domains shown, Tested as human IgG4 S228P) VH: QVQLVQSGAEVKKPGASVKVSCKASGYTFTSYNMHWVRQAPGQGLEWMGVINPGDGATSYAQKFKGRVTMTRDTSTSTVYMELSSLRSEDTAVYYCARDYYGSSPLGYWGQGTLVTVSS VL: DIQMTQSPSSLSASVGDRVTITCRASPSISYLNWYQQKPGKAPKLLIYATSRLPSGVPSRFSGSGSGTDFTLTISSLQPEDFATYYCQQRSSSPTFGQGTKLEIK 48

Name the reported percentage reduction of b-hBSSL binding to CD14+ monocytes value associated with the binder S-SL048-118 hIgG4 S228P (antibody, V domains shown, also called clone 118; mAb118) VH: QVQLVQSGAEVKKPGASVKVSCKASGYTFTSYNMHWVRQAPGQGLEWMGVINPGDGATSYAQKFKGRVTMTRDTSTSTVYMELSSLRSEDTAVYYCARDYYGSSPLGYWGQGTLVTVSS VL: DIQMTQSPSSLSASVGDRVTITCSASPSISYMNWYQQKPGKAPKLLIYATSSLPSGVPSRFSGSGSGTDFTLTISSLQPEDFATYYCHQRSSSPTFGQGTKLEIKR 23
